Where do the numbers come from? From patent US20070167431A1.

- targetDesc: human cloned 5-HT6 receptors (Homo sapiens, UniProt P50406)
- Construct: expressed in transfected cells; host or cells: Hela cells (membrane preparation)
- Sequence (P50406 whole entry): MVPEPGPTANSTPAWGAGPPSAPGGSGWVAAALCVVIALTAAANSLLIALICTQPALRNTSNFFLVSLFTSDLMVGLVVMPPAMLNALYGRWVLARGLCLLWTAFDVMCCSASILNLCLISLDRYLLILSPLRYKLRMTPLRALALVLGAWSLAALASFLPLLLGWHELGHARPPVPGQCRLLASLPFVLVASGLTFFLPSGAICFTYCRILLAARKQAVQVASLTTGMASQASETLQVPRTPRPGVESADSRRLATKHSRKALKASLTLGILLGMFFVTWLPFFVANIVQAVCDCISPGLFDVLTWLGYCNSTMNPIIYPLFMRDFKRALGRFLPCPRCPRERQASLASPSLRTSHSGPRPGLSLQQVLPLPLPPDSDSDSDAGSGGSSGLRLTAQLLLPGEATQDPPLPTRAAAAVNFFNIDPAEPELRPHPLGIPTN
- procedureText: 5-HT6 binding affinity, [3H]-LSD displacement on membranes of Hela cells
- Protocol: The affinity of test compounds for the serotonin 5-HT6 receptor is evaluated in the following manner. […] The final pellet is suspended in a small volume of Tris.HCl buffer and the tissue protein content is determined in aliquots of 10-25 μl volumes. […] The bound complex caught on the filter disk is allowed to air dry and the radioactivity is measured in a Packard TopCount® equipped with six photomultiplier detectors, after the addition of 40.0 μl Microscint®-20 scintillant to each shallow well. […]
assayEndpoint: pKi
Schema: pKi number; meaning minus log10 of the concentration expressed in molar units.

Would you please look over these solved cases?
{"columns": ["querySmiles", "assayEndpoint", "reading"],
 "data": [
  ["O=S(=O)(c1ccccc1)n1ncc2c(N3CCNCC3)cccc21", "pKi", 9.22],
  ["O=S(=O)(c1cccc2ccccc12)c1n[nH]c2ccc(N3CCNCC3)cc12", "pKi", 8.96]
]}

Task item: Look up pKi of NCCOc1cccc2c(S(=O)(=O)c3cccc4ccccc34)n[nH]c12 and report it.
Reply: 8.72
